# TARGET_ENTITY: TANK-2 enzyme (Homo sapiens, UniProt Q9H2K2)
# Construct: made in house
# Sequence (Q9H2K2 whole entry): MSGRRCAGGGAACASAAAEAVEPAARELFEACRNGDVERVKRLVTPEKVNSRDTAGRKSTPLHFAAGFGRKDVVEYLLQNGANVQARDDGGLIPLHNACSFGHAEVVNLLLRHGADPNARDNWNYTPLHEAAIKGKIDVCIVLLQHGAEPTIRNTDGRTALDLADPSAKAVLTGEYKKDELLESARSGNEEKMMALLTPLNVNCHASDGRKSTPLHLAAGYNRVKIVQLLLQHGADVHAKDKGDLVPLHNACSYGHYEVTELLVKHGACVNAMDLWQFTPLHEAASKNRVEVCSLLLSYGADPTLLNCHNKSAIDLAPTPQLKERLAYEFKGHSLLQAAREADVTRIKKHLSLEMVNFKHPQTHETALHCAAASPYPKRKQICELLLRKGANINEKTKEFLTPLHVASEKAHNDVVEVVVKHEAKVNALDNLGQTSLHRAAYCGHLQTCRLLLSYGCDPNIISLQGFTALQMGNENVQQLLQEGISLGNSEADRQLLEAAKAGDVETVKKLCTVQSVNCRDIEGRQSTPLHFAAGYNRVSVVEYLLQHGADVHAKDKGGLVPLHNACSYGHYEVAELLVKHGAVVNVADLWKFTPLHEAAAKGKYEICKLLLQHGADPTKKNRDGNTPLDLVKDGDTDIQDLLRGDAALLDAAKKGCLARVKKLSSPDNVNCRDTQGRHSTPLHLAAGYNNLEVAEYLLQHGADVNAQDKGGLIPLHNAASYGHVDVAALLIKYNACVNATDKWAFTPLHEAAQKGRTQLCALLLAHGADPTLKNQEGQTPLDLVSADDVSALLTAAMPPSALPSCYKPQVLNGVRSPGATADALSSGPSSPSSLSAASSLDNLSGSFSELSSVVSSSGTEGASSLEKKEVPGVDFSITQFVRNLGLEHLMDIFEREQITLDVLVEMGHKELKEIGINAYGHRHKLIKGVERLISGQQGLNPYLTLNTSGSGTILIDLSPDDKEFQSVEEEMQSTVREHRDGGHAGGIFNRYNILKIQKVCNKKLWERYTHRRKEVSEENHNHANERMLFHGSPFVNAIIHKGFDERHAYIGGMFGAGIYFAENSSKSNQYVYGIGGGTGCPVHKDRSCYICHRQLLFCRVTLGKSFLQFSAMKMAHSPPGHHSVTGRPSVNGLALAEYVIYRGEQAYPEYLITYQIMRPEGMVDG
# ASSAY_COMMENT: In vitro Scintillation Proximity Assay (SPA) for TANK-2 inhibitory activity
# Type: biochemical
# EXPERIMENTAL_PARAMETERS: read-out: in vitro SPA assay TANK-2 pIC50 (converted)
# log10 of IC50 listing for each entry below
Plainly stated, the numbers are log10 of IC50 given in µM.

Known results for compounds:
- COMPOUND: "CCc1cc2ccc(C(C)(C#N)Cc3cnc(OC)nc3Cl)cc2[nH]c1=O (centres unmarked) [Compound 356]"
  TARGET_ENTITY: "TANK-2 enzyme (Homo sapiens, UniProt Q9H2K2)"
  MEASURED_NUMBER: -1.10
- COMPOUND: "CCc1cc2ccc(C(C)(C#N)Cc3cccc(Br)c3C)cc2[nH]c1=O (centres unmarked) [Compound 81]"
  TARGET_ENTITY: "TANK-2 enzyme (Homo sapiens, UniProt Q9H2K2)"
  MEASURED_NUMBER: -1.00
- COMPOUND: "CCc1cc2ccc([C@](C)(C#N)Cc3ccccc3)cc2[nH]c1=O (single isomer, unassigned) [Compound 45]"
  TARGET_ENTITY: "TANK-2 enzyme (Homo sapiens, UniProt Q9H2K2)"
  MEASURED_NUMBER: -1.60
- COMPOUND: "CCc1cc2ccc(C(C)(C#N)Cc3nc(Cl)cc(OC)n3)cc2[nH]c1=O (centres unmarked) [Compound 202]"
  TARGET_ENTITY: "TANK-2 enzyme (Homo sapiens, UniProt Q9H2K2)"
  MEASURED_NUMBER: -0.60
- COMPOUND: "CCc1cc2ccc(C(C)(C#N)C3CCc4ccc(Br)cc43)cc2[nH]c1=O (single isomer, unassigned) [Compound 381]"
  TARGET_ENTITY: "TANK-2 enzyme (Homo sapiens, UniProt Q9H2K2)"
  MEASURED_NUMBER: 0.10
- COMPOUND: "CCc1cc2ccc(C(C#N)(Cc3ccccc3)c3ccc(C#N)cc3)cc2[nH]c1=O (centres unmarked) [Compound 26]"
  TARGET_ENTITY: "TANK-2 enzyme (Homo sapiens, UniProt Q9H2K2)"
  MEASURED_NUMBER: -0.60
- COMPOUND: "CCc1cc2ccc(C(C)(C#N)Cc3cc(OC)cc(OC)c3)cc2[nH]c1=O (centres unmarked) [Compound 332]"
  TARGET_ENTITY: "TANK-2 enzyme (Homo sapiens, UniProt Q9H2K2)"
  MEASURED_NUMBER: -0.30
- COMPOUND: "CCc1cc2ccc(C(C)(C#N)Cc3c(F)ccc(C)c3F)cc2[nH]c1=O (centres unmarked) [Compound 41]"
  TARGET_ENTITY: "TANK-2 enzyme (Homo sapiens, UniProt Q9H2K2)"
  MEASURED_NUMBER: -1.10
- COMPOUND: "CCc1cc2ccc(C(C)(C#N)Cc3cccc(C#N)n3)cc2[nH]c1=O (single isomer, unassigned) [Compound 207]"
  TARGET_ENTITY: "TANK-2 enzyme (Homo sapiens, UniProt Q9H2K2)"
  MEASURED_NUMBER: -1.50
- COMPOUND: "CCc1cc2ccc(C(C)(C#N)Cc3cc(OC)c(OC)c(OC)c3)cc2[nH]c1=O (centres unmarked) [Compound 289]"
  TARGET_ENTITY: "TANK-2 enzyme (Homo sapiens, UniProt Q9H2K2)"
  MEASURED_NUMBER: -0.60

The record that follows has no log10 of IC50 shown yet.
Input line: State its log10 of IC50 on TANK-2 enzyme (Homo sapiens, UniProt Q9H2K2): CCc1cc2ccc([C@](C)(C#N)[C@H]3CCOc4ccccc43)cc2[nH]c1=O (single isomer, unassigned) [Compound 394]
Output line: 0.00

* * *

# IC50 values compiled below
# TARGET_ENTITY: TANK-2 enzyme (Homo sapiens)
# Construct: made in house
# ASSAY_COMMENT: In vitro Scintillation Proximity Assay (SPA) for TANK-2 inhibitory activity
# Format: biochemical
# EXPERIMENTAL_PARAMETERS: read-out: in vitro SPA assay TANK-2 pIC50 (converted)
Provide the reading as a plain figure in nM.

Consider the following illustrative entries.
- COMPOUND: "CCc1cc2ccc(C(C#N)(CC)Cc3cccc(OC)c3)cc2[nH]c1=O (stereo not drawn) [Compound 287]"
  READING_UNIT: "nM"
  IC50: 1000
- COMPOUND: "CCc1cc2ccc(C(C)(C#N)Cc3cccc(N4CCNCC4)c3)cc2[nH]c1=O (stereo not drawn) [Compound 64]"
  READING_UNIT: "nM"
  IC50: 25.1

Okay, now this compound:
Input line: I would be grateful if you could share the reported IC50 for CCc1cc2ccc(C(C)(C#N)Cc3ccc(F)c(C)c3)cc2[nH]c1=O (stereo not drawn) [Compound 79] .
Output line: 79.4

* * *

Examples of compounds with documented minimal effective concentration follow.
# System: PC3 cells
# ASSAY_COMMENT: EB1 Comet (microtubule disruption) assay
# Format: cell-based, human
# EXPERIMENTAL_PARAMETERS: Homo sapiens, PC-3, 1 h, 1 hour treatment, read-out: EB1 pLAC (converted)
Supply the numeric figure in µM, leaving out any unit text.

Some entries whose results are on file:
- COMPOUND: "Cc1cc2ccc([C@@](C)(C#N)CCOc3ccccc3)cc2[nH]c1=O (single isomer, unassigned) [Compound 164]"
  TARGET_ENTITY: "PC3 cells"
  MEASUREMENT_KIND: "minimal effective concentration"
  MEASURED_NUMBER: 0.316
- COMPOUND: "CCc1cc2ccc([C@](C)(C#N)Cc3cccc(C#N)c3)cc2[nH]c1=O (single isomer, unassigned) [Compound 269]"
  TARGET_ENTITY: "PC3 cells"
  MEASUREMENT_KIND: "minimal effective concentration"
  MEASURED_NUMBER: 0.1
- COMPOUND: "Cc1cc2ccc([C@](C)(C#N)[C@H]3CCCc4ccccc43)cc2[nH]c1=O [Compound 383]"
  TARGET_ENTITY: "PC3 cells"
  MEASUREMENT_KIND: "minimal effective concentration"
  MEASURED_NUMBER: 3.16
- COMPOUND: "Cc1cc2ccc(C(C)(C#N)Cc3cccc(C#N)c3)cc2[nH]c1=O (centres unmarked) [Compound 34]"
  TARGET_ENTITY: "PC3 cells"
  MEASUREMENT_KIND: "minimal effective concentration"
  MEASURED_NUMBER: 0.316
- COMPOUND: "CCc1cc2ccc(C(C)(C#N)Cc3cc(C)cc(Br)c3)cc2[nH]c1=O (centres unmarked) [Compound 284]"
  TARGET_ENTITY: "PC3 cells"
  MEASUREMENT_KIND: "minimal effective concentration"
  MEASURED_NUMBER: 0.316
- COMPOUND: "CCc1cc2ccc(C(C)(C#N)Cc3cccc(CN)c3)cc2[nH]c1=O (centres unmarked) [Compound 290]"
  TARGET_ENTITY: "PC3 cells"
  MEASUREMENT_KIND: "minimal effective concentration"
  MEASURED_NUMBER: 3.16
- COMPOUND: "CCc1cc2ccc(C(C)(C#N)Cc3cccc(C(F)(F)F)c3)cc2[nH]c1=O (centres unmarked) [Compound 109]"
  TARGET_ENTITY: "PC3 cells"
  MEASUREMENT_KIND: "minimal effective concentration"
  MEASURED_NUMBER: 3.16

Turning to the following compound.
Input line: What value of minimal effective concentration has been recorded for this entry: CCc1cc2ccc(C(C)(C#N)Cc3ccccc3F)cc2[nH]c1=O (centres unmarked) [Compound 106]
Output line: 0.316

These entries and their values trace back to patent US8778966B2.
